assay: Host toxicity: lethality, body weight change, MTD in tumour-bearing mice; conditions: female, C3H/HeN, mouse, in vivo, ip, MTD (µmol/kg), chemotherapy drug alone (no DMXAA)
PROPERTY NAME: MTD (µmol/kg)
Record the value in µmol/kg, omitting the unit from your answer.

{"MOLECULE": "CC(=O)O[C@H]1C(=O)[C@@]2(C)[C@H]([C@H](OC(=O)c3ccccc3)[C@]3(O)C[C@H](OC(=O)[C@H](O)[C@@H](NC(=O)c4ccccc4)c4ccccc4)C(C)=C1C3(C)C)[C@]1(OC(C)=O)CO[C@@H]1C[C@@H]2O", "MTD, µmol/kg": 42.1}

Now look at this one.
Form: molecule = CC(=O)O[C@@]12CO[C@@H]1C[C@H](O)[C@@]1(C)C(=O)[C@H](O)C3=C(C)[C@@H](OC(=O)[C@H](O)[C@@H](NC(=O)OC(C)(C)C)c4ccccc4)C[C@@](O)([C@@H](OC(=O)c4ccccc4)[C@H]21)C3(C)C [docetaxel, trihydrate] ; MTD = 23.7
